assay: Half life in rat at 1 mg/kg, iv; format: ADME, organism-based; details: in vivo
endpoint_name: half-life (h)

[
  {
    "mol_smiles": "Cc1c(F)cccc1CCCCOc1ccc(C#Cc2ccc(F)c3c(CCCC(=O)O)c(C)n(CCCC(=O)O)c23)cc1",
    "half-life [h]": 9.6
  },
  {
    "mol_smiles": "Cc1c(Cl)cccc1CCCCOc1ccc(/C=C/c2cccc3c(CCCC(=O)O)c(C)n(CC(=O)O)c23)cc1",
    "half-life [h]": 8.9
  }
]

* * *

test: AUC in guinea pig at 10 mg/kg, po; format: ADME, organism-based, Cavia porcellus; conditions: in vivo
endpoint_name: AUC (ng·h/mL)
Field format: number, assumed ng·h/mL, no unit text.

QUERY: For the molecule shown here, "Cc1c(Cl)cccc1CCCCOc1ccc(/C=C/c2cccc3c(CCCC(=O)O)c(C)n(CC(=O)O)c23)cc1" , give the reported AUC.
RESULT: 10000
